- system: mouse Bak protein (Mus musculus)
- Sequence (O08734 1-209): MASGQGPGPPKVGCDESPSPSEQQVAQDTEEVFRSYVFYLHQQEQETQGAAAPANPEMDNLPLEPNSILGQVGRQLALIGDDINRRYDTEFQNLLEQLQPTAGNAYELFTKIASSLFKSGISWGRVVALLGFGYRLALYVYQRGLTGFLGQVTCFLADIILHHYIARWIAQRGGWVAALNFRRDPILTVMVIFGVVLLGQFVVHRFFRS
measure_name: pKd
A value of pKd is the negative decimal logarithm of a concentration given in moles per litre.

Any idea what pKd was measured for COc1ccc2nc3ccccc3c(NCCNCC(C)O)c2c1 (stereo not shown) [BKA-073] ? 7.03
